Ref: PubChem BioAssay AID488804

Target: 26S proteasome chymotrypsin-like activity (human)
Test: inhibitors of cellular proteasome chymotrypsin-like activity, dose response, counter-screen, cell-based, U2OS, luminescence, dry powder, set 2 (AID 488804)
Conditions: U2OS cells, Proteasome-Glo chymotrypsin luminescence; at 38 µM (top of the series)
The source made the active and inactive calls.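 The calls were made as follows: active = luminescence cut by over half relative to the proteasome inhibitor control, with potency below ten times the top valid dose; inactive = no activity, or signal change in the wrong direction.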
readout.name: activity change, negative = inhibition

Guide cases for activity change, negative = inhibition, answers given:
Cc1ccc(NC(=O)c2cc(-c3ccccc3)on2)cn1; inactive
Cn1c(-c2ccccc2)cnc1Nc1nc(-c2ccccn2)nnc1-c1ccccc1; inactive
c1ccc(-c2nnc(-c3ccccn3)nc2NCC2CC2)cc1; inactive
CC(C)(C)CCNc1nc(-c2ccccn2)nnc1-c1ccccc1; inactive
Cc1ccc(CNc2nc(-c3ccccn3)nnc2-c2ccccc2)cc1; inactive

# evaluate next
Consider the compound `OCC1CCN(c2nc(-c3ccccn3)nnc2-c2ccccc2)CC1` . State its measured activity change, negative = inhibition.
inactive
